Exercise: for every item that follows, state its recorded Mean Z-score at 1 μM (reversal of T-cell exhaustion).
System: splenocytes from LCMV-CL13 infected IFN-γ-YFP mice
Type: cell-based
One number for each entry.

Completed entries (count: 5):
molecule=O=S(=O)(NCCCCCCc1ccccc1)c1cccc2c(Cl)cccc12 target_system="splenocytes from LCMV-CL13 infected IFN-γ-YFP mice" meas_value=11.1
molecule="CC1=C[C@]23C(=O)[C@@H](C=C(CO)[C@@H](O)[C@]2(O)[C@H]1O)[C@H]1[C@@H](C[C@H]3C)C1(C)C [Ingenol]" target_system="splenocytes from LCMV-CL13 infected IFN-γ-YFP mice" meas_value=0.6
molecule="CC(=O)O[C@@]12C[C@@H](C)[C@@]3(O)[C@@H](C=C(CO)C[C@]4(O)C(=O)C(C)=C[C@@H]34)[C@@H]1C2(C)C [prostratin]" target_system="splenocytes from LCMV-CL13 infected IFN-γ-YFP mice" meas_value=48.9
molecule="CO[C@@H](CC[C@H](C)[C@H]1O[C@@]23C[C@H](OC(=O)C2=C(O)[C@H](C)CC3(C)C)[C@@H]1C)c1cccc(O)c1 [Neo-debromoaplysiatoxin B]" target_system="splenocytes from LCMV-CL13 infected IFN-γ-YFP mice" meas_value=3.6
molecule="CCCCCCCCCCCCCC(=O)O[C@@H]1[C@@H](C)[C@@]2(O)C(C=C(CO)C[C@]3(O)C(=O)C(C)=C[C@@H]23)[C@@H]2C(C)(C)[C@]12OC(C)=O (some centres unmarked) [12-O-tetradecanoylphorbol-13-acetate]" target_system="splenocytes from LCMV-CL13 infected IFN-γ-YFP mice" meas_value=17.8

I have 3 molecules here; please give me Mean Z-score at 1 μM (reversal of T-cell exhaustion) for each one.
1. CC(C)[C@H]1C(=O)N[C@H](CO)Cc2cc(NC(=O)/C=C/C=C/c3ccc(C(F)(F)F)cc3)ccc2N1C [TPPB]
2. CC(=O)O[C@@]12[C@H](O)[C@@H](C)[C@@]3(O)C(C=C(CO)C[C@]4(O)C(=O)C(C)=C[C@@H]34)[C@@H]1C2(C)C (some centres unmarked) [Phorbol-13-acetate]
3. C/C=C(/C)C(=O)O[C@H]1C(C)=C[C@]23C(=O)[C@@H](C=C(CO)[C@@H](O)[C@]12O)[C@H]1[C@@H](C[C@H]3C)C1(C)C [Ingenol-3-angelate]

**A:**
[4.6, 0.9, 30.9]
